Data origin: ChEMBL document CHEMBL1201862

tested on: SK-OV-3; assay: NCI tumour cell line growth inhibition, 48 h
The source made the active and inactive calls. No stated cut-off is given here; in the data, active = GI50 up to about 1.1 µM and inactive = higher.
Labels: 1 = active, -1 = inactive

[
  {
    "COMPOUND": "NCc1c(C(N)=O)ncn1Cc1ccccc1",
    "CLASS_NAME": -1
  },
  {
    "COMPOUND": "COc1ccc(C2CC(c3ccc4ccccc4c3O)=NN2C(C)=O)cc1OC (configuration not stated)",
    "CLASS_NAME": -1
  },
  {
    "COMPOUND": "CN(C)S(=O)(=O)Nc1nnc(S(N)(=O)=O)s1",
    "CLASS_NAME": -1
  },
  {
    "COMPOUND": "N#C/C(=C1\\SC(C(N)=O)=C(N)N1c1ccccc1)c1nc2ccccc2[nH]1",
    "CLASS_NAME": -1
  },
  {
    "COMPOUND": "C=C1C(=O)OC2/C=C(\\C)C(=O)CC3OC(C)(C)OC3(C)CC(OC(=O)/C(C)=C/C)C12 (configuration not stated)",
    "CLASS_NAME": -1
  },
  {
    "COMPOUND": "COc1cc2c(cc1O)C(C)Cc1cc3c(cc1N(C)CC2)OCO3 (configuration not stated)",
    "CLASS_NAME": -1
  },
  {
    "COMPOUND": "CC(CO)CCNc1ncnc2c1ncn2CCC#N (configuration not stated)",
    "CLASS_NAME": -1
  },
  {
    "COMPOUND": "C=C(C)C(=O)O[C@H]1CC2(CO)O[C@@H]2CC/C(COC(C)=O)=C/C2OC(=O)C(=C)[C@@H]21 (some centres not stated)",
    "CLASS_NAME": -1
  },
  {
    "COMPOUND": "CC1=[N+]([O-])C(C)(C)N(O)C1(C)C",
    "CLASS_NAME": -1
  },
  {
    "COMPOUND": "CCC1=NC(C(F)(F)F)(C(F)(F)F)N=C(N2CCOCC2)O1",
    "CLASS_NAME": -1
  },
  {
    "COMPOUND": "Cc1ccc(S(=O)(=O)N/N=C(\\C(=O)Nc2cccc([N+](=O)[O-])c2)c2nc3ccc([N+](=O)[O-])cc3nc2O)cc1",
    "CLASS_NAME": -1
  },
  {
    "COMPOUND": "COc1ccc(/C=C/C(=O)C(C)(C)CN2CCCCC2)cc1",
    "CLASS_NAME": -1
  },
  {
    "COMPOUND": "Cc1ccc(/N=N/c2c(C)nn(-c3ccccc3)c2-c2ccccc2)c(Br)c1",
    "CLASS_NAME": -1
  },
  {
    "COMPOUND": "CCC1CCCCN1CC(C(C)=O)C(c1ccccc1)c1c(O)c2ccccc2oc1=O (configuration not stated)",
    "CLASS_NAME": -1
  },
  {
    "COMPOUND": "Cc1nc(-[n+]2nc(-c3ccncc3)nn2-c2ccccc2)sc1C",
    "CLASS_NAME": -1
  },
  {
    "COMPOUND": "CC1(C)CC(=O)C2=C(C1)NC(=S)C(C#N)C2c1ccccc1 (configuration not stated)",
    "CLASS_NAME": -1
  },
  {
    "COMPOUND": "COC(=O)C1N=CSCC1(C)O (configuration not stated)",
    "CLASS_NAME": -1
  },
  {
    "COMPOUND": "CCOC(=O)NC(=O)c1cn(CCN2CCN(C(=O)CCCCCCCCCCNc3ncnc4[nH]cnc34)CC2)c(=O)[nH]c1=O",
    "CLASS_NAME": -1
  },
  {
    "COMPOUND": "COc1ccc2nc3ccc(OC)cc3c(S(=O)(=O)Cc3ccc([N+](=O)[O-])cc3)c2c1",
    "CLASS_NAME": -1
  },
  {
    "COMPOUND": "C=CCNS(=O)(=O)c1ncnc2[nH]cnc12",
    "CLASS_NAME": -1
  },
  {
    "COMPOUND": "CCCn1cnc2c(SCc3ccc(Cl)cc3)nc(N)nc21",
    "CLASS_NAME": -1
  },
  {
    "COMPOUND": "O=S(=O)(N/N=C/c1cccc(/C=N/NS(=O)(=O)c2ccccc2)c1)c1ccccc1",
    "CLASS_NAME": -1
  },
  {
    "COMPOUND": "[O-]/[N+](=C\\c1ccccc1)[C@H](COCc1ccccc1)c1ccccc1",
    "CLASS_NAME": -1
  },
  {
    "COMPOUND": "O=C(O)CC/C(=N\\Nc1nsc2ccccc12)c1ccc(Cl)cc1",
    "CLASS_NAME": -1
  },
  {
    "COMPOUND": "S=C=NCc1ccccc1 [BENZYL ISOTHIOCYANATE]",
    "CLASS_NAME": -1
  },
  {
    "COMPOUND": "COc1ccc2c(c1)C1=NCCN(CCO)c3ccc([N+](=O)[O-])c(c31)N2",
    "CLASS_NAME": 1
  },
  {
    "COMPOUND": "O=P1(NCCCl)OCCCN1CCCl (configuration not stated) [IFOSFAMIDE]",
    "CLASS_NAME": -1
  },
  {
    "COMPOUND": "CN(C)c1ccc(/C(F)=C(F)/C(F)=C(F)/C(F)=C(\\F)c2ccc(Br)cc2)cc1",
    "CLASS_NAME": -1
  },
  {
    "COMPOUND": "Cc1cc(N(CCC#N)S(=O)(=O)c2ccccc2)ccc1C=O",
    "CLASS_NAME": -1
  },
  {
    "COMPOUND": "C[N+](C)(C)CC1CCC(C[N+](C)(C)C)C1=O (configuration not stated)",
    "CLASS_NAME": -1
  },
  {
    "COMPOUND": "COc1ccccc1N1CCN(CCCCNC(=O)c2ccc([N+](=O)[O-])o2)CC1",
    "CLASS_NAME": -1
  },
  {
    "COMPOUND": "CC1ON2CCCC2[C@H]1C(=O)N1C2CC3CCC2(CS1(=O)=O)C3(C)C (some centres not stated)",
    "CLASS_NAME": -1
  },
  {
    "COMPOUND": "C/C(Sc1ccccc1)=C1/CCCN(Cc2ccccc2)C1",
    "CLASS_NAME": -1
  },
  {
    "COMPOUND": "CN(C)CCN1C(=O)c2cccc3cc(N)cc(c23)C1=O [AMONAFIDE]",
    "CLASS_NAME": -1
  },
  {
    "COMPOUND": "CC(=O)N1N=C(c2ccccc2Nc2ccccc2C2=NN(C(C)=O)C(c3ccccc3)O2)OC1c1ccccc1 (configuration not stated)",
    "CLASS_NAME": -1
  },
  {
    "COMPOUND": "Cc1cc(S(=O)(=O)n2ccnc2O)c(SCCCN(C)C)cc1Cl",
    "CLASS_NAME": -1
  },
  {
    "COMPOUND": "COC1(OC)N=C(N)C2(C#N)C(C)=C3NCN(C)N=C3C12C#N (configuration not stated)",
    "CLASS_NAME": -1
  },
  {
    "COMPOUND": "COc1cccc(C(NC2=NCCC=N2)c2cc3c(cc2O)OCO3)c1O (configuration not stated)",
    "CLASS_NAME": -1
  },
  {
    "COMPOUND": "COc1ccc(CNc2ccn(C3OC(CO)C(O)C3O)c(=O)n2)cc1 (configuration not stated)",
    "CLASS_NAME": -1
  },
  {
    "COMPOUND": "Cc1c(/N=N/c2ccc(Cl)cc2)c(-c2ccccc2)n(C2OC(CO)C(O)C(O)C2O)c(=S)c1C#N (configuration not stated)",
    "CLASS_NAME": -1
  },
  {
    "COMPOUND": "O=S(=O)(c1ccccc1)n1c2cc3cccnc3nc2c2cccnc21",
    "CLASS_NAME": -1
  },
  {
    "COMPOUND": "COc1c(C=O)c2c(c(OC)c1OC)-c1ccc(OC)c(=O)cc1[C@@H](NC(C)=O)CC2",
    "CLASS_NAME": -1
  }
]

* * *

system: OVCAR-8; test: NCI tumour cell line growth inhibition, 48 h
Calls of active or inactive are those of the source. No stated cut-off is given here; in the data, active = GI50 up to about 1.1 µM and inactive = higher.
Possible outcomes: active, inactive

[
  {
    "MOLECULE": "O=C1C[C@@H](Sc2ccccc2)C2(OCCO2)C2ON3CCCC[C@H]3[C@H]12 (stereo not given in full)",
    "CLASS_NAME": "inactive"
  },
  {
    "MOLECULE": "O=C(O)c1nc2ccccc2nc1Nc1ccc(Cl)c(Cl)c1",
    "CLASS_NAME": "inactive"
  },
  {
    "MOLECULE": "Nc1cc(N)c(/N=N/c2cccc3c(S(=O)(=O)O)cccc23)cc1/N=N/c1cc([N+](=O)[O-])ccc1O",
    "CLASS_NAME": "inactive"
  },
  {
    "MOLECULE": "CC(C)(C)C(=O)C(N)C(=O)C(C)(C)C",
    "CLASS_NAME": "inactive"
  },
  {
    "MOLECULE": "CC1=C(/C(C)=N/NC(=O)C(N)=O)Sc2ccccc2N1",
    "CLASS_NAME": "inactive"
  },
  {
    "MOLECULE": "Cc1ccc(/N=N/NCCCCN/N=N/c2ccc(C)cc2)cc1",
    "CLASS_NAME": "inactive"
  },
  {
    "MOLECULE": "[O-]/[N+](=C\\c1ccccc1)[C@H](COCc1ccccc1)c1ccccc1",
    "CLASS_NAME": "inactive"
  },
  {
    "MOLECULE": "CC(=O)N(C)c1ccc2c(ccc[n+]2[O-])c1[N+](=O)[O-]",
    "CLASS_NAME": "inactive"
  },
  {
    "MOLECULE": "N=c1oc2c(Cl)cc(Cl)cc2cc1C(=O)Nc1cccc2ccccc12",
    "CLASS_NAME": "inactive"
  },
  {
    "MOLECULE": "CCOC(=O)NC(=O)c1cn(CCN2CCN(C(=O)CCCCCCCCCCNc3ncnc4[nH]cnc34)CC2)c(=O)[nH]c1=O",
    "CLASS_NAME": "inactive"
  },
  {
    "MOLECULE": "COc1ccc(CC2C(=O)NC(C)C(=O)N(C)C3Cc4ccc(cc4)Oc4cc(ccc4O)CC(C(=O)NC(C)C(=O)NC(C)C(=O)N2C)N(C)C3=O)cc1 (stereo not given)",
    "CLASS_NAME": "active"
  },
  {
    "MOLECULE": "CCCCn1c(C)c2c(c1C)C(=O)N(CC(O)CN1CCc3ccccc3C1)C2=O (stereo not given)",
    "CLASS_NAME": "inactive"
  },
  {
    "MOLECULE": "Cc1cc(=O)oc2cc(O)c(CN(C)CC(=O)O)cc12",
    "CLASS_NAME": "inactive"
  },
  {
    "MOLECULE": "COc1ccc2nc3ccccc3c(NCCCN(C)CCCl)c2c1",
    "CLASS_NAME": "active"
  },
  {
    "MOLECULE": "CC(C)N1CC2CC(CN(C(=O)c3ccccc3)C2)C1.[O-][Cl+3]([O-])([O-])O",
    "CLASS_NAME": "inactive"
  },
  {
    "MOLECULE": "CCCC(O)[C@@H](O)c1ccc2c(c1O)C(=O)c1c(OC)cccc1C2=O (stereo not given in full)",
    "CLASS_NAME": "inactive"
  },
  {
    "MOLECULE": "CCCn1cnc2c(SCc3ccc(Cl)cc3)nc(N)nc21",
    "CLASS_NAME": "inactive"
  },
  {
    "MOLECULE": "CN(Cc1cc(Cl)cc(Cl)c1O)Cc1c(O)ccc2ccccc12",
    "CLASS_NAME": "inactive"
  },
  {
    "MOLECULE": "O=C(O)c1ccccn1",
    "CLASS_NAME": "inactive"
  },
  {
    "MOLECULE": "COc1cc(C(C)c2cc3c(cc2OCCNC(=O)COc2cc4c(cc2C(C)c2cc(OC)c(OC)c(OC)c2)OCO4)OCO3)cc(OC)c1OC (stereo not given)",
    "CLASS_NAME": "inactive"
  }
]
